// reported ΔTm per item
Test system: Calf thymus DNA
Test: Binding affinity to calf thymus DNA assessed as change in melting temperature in citric acid/NaOH buffer ayt pH 5 at [compound]/[DNA] ratio of 0.3 by tangent method
Type: nucleic-acid assay
Details: Bos taurus
metric: ΔTm

In [3]: df
Out[3]:
                            chemical_string  metric  recorded_result
0  Cc1nc2ccccc2c2ccc(C[C@H](NC(=O)[C@@H](N)Cc3ccc4c(c3)c(C)nc3ccccc34)C(=O)O)cc12     ΔTm          11.3 °C
1  Cc1nc2ccccc2c2ccc(C[C@H](NC(=O)CN)C(=O)O)cc12     ΔTm          11.1 °C
2    Cc1nc2ccccc2c2ccc(C[C@H](N)C(=O)O)cc12     ΔTm             4 °C
3  Cc1nc2ccccc2c2ccc(C[C@H](NC(=O)CNC(=O)[C@@H](N)Cc3ccc4c(c3)c(C)nc3ccccc34)C(=O)O)cc12     ΔTm          18.4 °C

Source: ChEMBL document CHEMBL1165876
